Data provenance: patent US9745321B2

# Test System: PI3Kα (Homo sapiens (Human), UniProt P42336)
# Sequence (P42336 whole entry, one chain of several): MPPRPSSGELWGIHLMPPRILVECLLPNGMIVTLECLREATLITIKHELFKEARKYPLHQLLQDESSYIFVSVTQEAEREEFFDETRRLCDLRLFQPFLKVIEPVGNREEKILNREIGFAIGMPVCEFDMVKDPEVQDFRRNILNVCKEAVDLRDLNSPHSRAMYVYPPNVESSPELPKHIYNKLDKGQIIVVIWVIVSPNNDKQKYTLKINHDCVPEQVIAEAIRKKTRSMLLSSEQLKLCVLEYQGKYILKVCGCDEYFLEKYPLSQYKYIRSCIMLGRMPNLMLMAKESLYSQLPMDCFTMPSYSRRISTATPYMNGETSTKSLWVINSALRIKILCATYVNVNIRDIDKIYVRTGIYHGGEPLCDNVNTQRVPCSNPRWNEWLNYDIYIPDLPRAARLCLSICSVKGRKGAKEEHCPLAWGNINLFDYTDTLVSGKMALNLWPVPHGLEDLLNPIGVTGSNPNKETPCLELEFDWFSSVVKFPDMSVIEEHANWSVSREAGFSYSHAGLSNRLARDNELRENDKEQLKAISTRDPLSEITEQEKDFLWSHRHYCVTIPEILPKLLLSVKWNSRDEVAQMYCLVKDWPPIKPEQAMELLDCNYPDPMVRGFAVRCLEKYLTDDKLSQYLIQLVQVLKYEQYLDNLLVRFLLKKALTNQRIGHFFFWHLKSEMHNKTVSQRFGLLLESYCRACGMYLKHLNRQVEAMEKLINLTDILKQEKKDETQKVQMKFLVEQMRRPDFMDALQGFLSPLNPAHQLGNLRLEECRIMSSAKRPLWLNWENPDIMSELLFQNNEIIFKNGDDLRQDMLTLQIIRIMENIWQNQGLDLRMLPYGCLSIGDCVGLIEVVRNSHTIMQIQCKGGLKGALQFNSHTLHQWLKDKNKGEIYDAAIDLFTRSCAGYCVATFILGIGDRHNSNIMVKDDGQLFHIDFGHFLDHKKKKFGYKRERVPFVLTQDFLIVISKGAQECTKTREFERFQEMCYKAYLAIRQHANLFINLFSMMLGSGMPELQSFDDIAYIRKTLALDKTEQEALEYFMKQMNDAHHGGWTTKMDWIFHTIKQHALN
# Test Description: PI3Kα enzyme activity inhibition IC50 evaluation assay
# Assay type: biochemical
# Particulars: ratio PI3Kα vs PI3Kδ
Value Type: α/δ selectivity

1. COc1ncc(-c2nc(N3CCOCC3)nc3c(CN4C[C@@H](C)O[C@@H](C)C4)csc23)cc1NS(C)(=O)=O; 10
2. COc1ncc(-c2nc(N3CCOCC3)nc3c(CN4CCC(N(C)C(C)C)CC4)csc23)cc1NS(C)(=O)=O; 150
3. COc1ncc(-c2nc(N3CCOCC3)nc3c(CN4CCc5ccccc5C4)c(C)sc23)cc1NS(C)(=O)=O; 67
4. CCC(=O)N1CCN(Cc2csc3c(-c4cnn(C)c4)nc(N4CCOCC4)nc23)CC1; 58

---

# Test System: PI3Kα (Homo sapiens (Human), UniProt P42336)
# Test Description: PI3Kα enzyme activity inhibition IC50 evaluation assay
# Type: biochemical
# Particulars: ratio PI3Kα vs PI3Kδ
The threshold is inclusive: α/δ selectivity of exactly 100 counts as y; values below receive n.

1) COc1ncc(-c2nc(N3CCOCC3)nc3c(CN4CCC(F)CC4)c(C)sc23)cc1NS(C)(=O)=O; n
2) COc1ncc(-c2nc(N3CCOCC3)nc3c(CN4CCC(C(C)(C)O)CC4)c(C)sc23)cc1NS(C)(=O)=O; y
3) COc1ncc(-c2nc(N3CCOCC3)nc3c(CN(C)C)c(C)sc23)cc1NS(C)(=O)=O; n
4) COc1ncc(-c2nc(N3CCOCC3)nc3c(CN4CCn5ccnc5C4)c(C)sc23)cc1NS(C)(=O)=O; n
5) COc1ncc(-c2nc(N3CCOCC3)nc3c(CN4CCC(C(C)(C)OC)CC4)csc23)cc1NS(C)(=O)=O; y
6) COc1ncc(-c2nc(N3CCOCC3)nc3c(CN4CCC(OC)CC4)c(C)sc23)cc1NS(=O)(=O)C1CC1; y
7) COc1ncc(-c2nc(N3CCOCC3)nc3c(CN4CC(C(C)(C)O)C4)csc23)cc1NS(C)(=O)=O; y
8) COc1ncc(-c2nc(N3CCOCC3)nc3c(CN4CCN(C(=O)CC#N)CC4)c(C)sc23)cc1NS(C)(=O)=O; n
9) COc1ncc(-c2nc(N3CCOCC3)nc3c(CN4CCC(N5CCCC5)CC4)c(C)sc23)cc1NS(C)(=O)=O; y
10) CC(C)C(=O)N1CCN(Cc2csc3c(-n4ccnc4C(F)(F)F)nc(N4CCOCC4)nc23)CC1; n
11) COc1ncc(-c2nc(N3CCOCC3)nc3c(CN4CCN(C(=O)NCC(F)(F)F)CC4)csc23)cc1NS(C)(=O)=O; n
12) COc1ncc(-c2nc(N3CCOCC3)nc3c(CN4CCN(C(=O)C(F)(F)F)CC4)c(C)sc23)cc1NS(=O)(=O)C1CC1; y
13) COc1ncc(-c2nc(N3CCOCC3)nc3c(CN4CCC(C(C)(C)O)CC4)c(C)sc23)cc1NS(=O)(=O)C1CC1; y
14) COc1ncc(-c2nc(N3CCOCC3)nc3c(CN4CC[C@@H](N5CCC[C@H]5C)C4)c(C)sc23)cc1NS(C)(=O)=O; y

---

Below, each entry is listed with its recorded β/δ selectivity.
# Test System: UniProt P42338
# Sequence (P42338 whole entry): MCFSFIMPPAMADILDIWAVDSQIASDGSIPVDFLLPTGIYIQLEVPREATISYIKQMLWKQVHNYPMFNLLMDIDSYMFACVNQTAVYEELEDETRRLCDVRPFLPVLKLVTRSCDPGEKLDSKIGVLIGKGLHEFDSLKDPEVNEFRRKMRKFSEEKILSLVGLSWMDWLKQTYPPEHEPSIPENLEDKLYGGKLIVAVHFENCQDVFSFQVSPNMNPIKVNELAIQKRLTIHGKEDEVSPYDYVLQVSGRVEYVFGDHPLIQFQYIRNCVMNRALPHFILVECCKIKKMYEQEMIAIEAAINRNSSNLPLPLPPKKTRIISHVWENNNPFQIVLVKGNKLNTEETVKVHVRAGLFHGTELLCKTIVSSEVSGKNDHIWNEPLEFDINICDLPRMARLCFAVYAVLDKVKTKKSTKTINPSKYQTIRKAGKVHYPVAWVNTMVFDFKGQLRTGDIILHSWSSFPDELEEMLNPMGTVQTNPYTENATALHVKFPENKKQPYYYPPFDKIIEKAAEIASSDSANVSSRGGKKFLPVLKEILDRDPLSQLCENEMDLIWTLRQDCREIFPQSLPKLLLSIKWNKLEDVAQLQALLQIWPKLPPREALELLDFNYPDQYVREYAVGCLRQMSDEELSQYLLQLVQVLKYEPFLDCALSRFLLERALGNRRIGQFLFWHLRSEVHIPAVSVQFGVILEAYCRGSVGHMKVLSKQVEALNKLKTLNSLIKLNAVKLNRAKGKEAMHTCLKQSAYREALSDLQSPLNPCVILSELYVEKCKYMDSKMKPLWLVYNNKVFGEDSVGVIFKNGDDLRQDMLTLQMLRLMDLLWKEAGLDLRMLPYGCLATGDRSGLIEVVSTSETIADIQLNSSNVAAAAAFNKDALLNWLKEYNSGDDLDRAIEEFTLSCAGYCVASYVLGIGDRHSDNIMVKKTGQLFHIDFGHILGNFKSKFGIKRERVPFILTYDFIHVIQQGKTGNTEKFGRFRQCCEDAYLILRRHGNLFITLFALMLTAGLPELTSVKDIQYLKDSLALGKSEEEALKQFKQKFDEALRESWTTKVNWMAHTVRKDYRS
# Sequence (P27986 whole entry partner): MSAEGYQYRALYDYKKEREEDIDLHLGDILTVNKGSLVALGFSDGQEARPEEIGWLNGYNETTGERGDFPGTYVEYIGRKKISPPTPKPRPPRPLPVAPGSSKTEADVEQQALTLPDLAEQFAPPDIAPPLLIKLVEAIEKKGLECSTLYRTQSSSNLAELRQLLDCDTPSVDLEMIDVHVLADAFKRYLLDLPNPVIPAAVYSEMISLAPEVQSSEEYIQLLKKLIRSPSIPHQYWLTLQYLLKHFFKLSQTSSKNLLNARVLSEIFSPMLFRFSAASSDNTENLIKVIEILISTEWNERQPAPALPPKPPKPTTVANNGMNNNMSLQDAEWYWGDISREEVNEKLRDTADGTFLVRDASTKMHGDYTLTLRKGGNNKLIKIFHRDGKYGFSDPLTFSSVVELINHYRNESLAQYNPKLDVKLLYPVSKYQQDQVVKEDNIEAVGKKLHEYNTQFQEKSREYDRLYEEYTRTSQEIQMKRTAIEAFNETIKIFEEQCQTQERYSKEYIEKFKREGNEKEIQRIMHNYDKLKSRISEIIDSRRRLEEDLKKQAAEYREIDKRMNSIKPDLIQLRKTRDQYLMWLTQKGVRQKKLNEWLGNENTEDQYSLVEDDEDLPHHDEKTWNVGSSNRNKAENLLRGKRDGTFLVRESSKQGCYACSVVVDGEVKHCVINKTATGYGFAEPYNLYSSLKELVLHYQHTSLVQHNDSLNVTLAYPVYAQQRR
# Test Description: PI3Kβ enzyme activity inhibition IC50 evaluation assay
# Type: biochemical
# Particulars: ratio PI3Kβ vs PI3Kδ
Value Type: β/δ selectivity

1) COc1ncc(-c2nc(N3CCOCC3)nc3c(CN4CCC(C(C)(C)OC)CC4)c(C)sc23)cc1NS(C)(=O)=O [Compound 78]; 18
2) COc1ncc(-c2nc(N3CCOCC3)nc3c(CN4CCCCC4)c(C)sc23)cc1NS(C)(=O)=O [Compound 86]; 25
3) COc1ncc(-c2nc(N3CCOCC3)nc3c(CN4CCN(C(C)(C)C)CC4)c(C)sc23)cc1NS(=O)(=O)C1CC1 [Compound 109]; 723
4) COc1ncc(-c2nc(N3CCOCC3)nc3c(CN4CCC5(CC4)CNC5)c(C)sc23)cc1NS(C)(=O)=O [Compound 106]; 72
5) COc1ncc(-c2nc(N3CCOCC3)nc3c(CN4CCCC4)c(C)sc23)cc1NS(C)(=O)=O [Compound 102]; 16
